system: canine glioma cells; assay: cytotoxicity, simple survival (T50%) of canine glioma cells; format: cell-based; settings: Canis lupus familiaris, Glioma cell, 96 h; read-out: T 50% (50% inhibitory concentration on simple survival)
Parameter Measured: pIC50
A value of pIC50 is the negative decimal logarithm of a concentration given in moles per litre.

[ask] Given the entry CC(C)OC(=O)C[C@H](O)C[C@@H](O)/C=C/c1c(C(C)C)nc(-c2ccccc2)n1-c1ccc(F)cc1 (relative stereo) , report its measured pIC50.
[reply] 6.05

====

system: canine glioma cells; assay: thymidine incorporation (I50%) of canine glioma cells; format: cell-based; details: Canis lupus familiaris, Glioma cell, 24 h, first four lines; read-out: I50% (thymidine incorporation)
Parameter Measured: IC50 (nM)
Answer with a number only, understood to be in nM.

[ask] Given the entry CC(C)OC(=O)C[C@H](O)C[C@@H](O)/C=C/c1c(C(C)C)nc(-c2ccccc2)n1-c1ccc(F)cc1 (relative stereo) , report its measured IC50.
[reply] 50
